molecular target: UniProtKB P14416; details: Compound concentration 10 µM
Sequence (P14416 whole entry): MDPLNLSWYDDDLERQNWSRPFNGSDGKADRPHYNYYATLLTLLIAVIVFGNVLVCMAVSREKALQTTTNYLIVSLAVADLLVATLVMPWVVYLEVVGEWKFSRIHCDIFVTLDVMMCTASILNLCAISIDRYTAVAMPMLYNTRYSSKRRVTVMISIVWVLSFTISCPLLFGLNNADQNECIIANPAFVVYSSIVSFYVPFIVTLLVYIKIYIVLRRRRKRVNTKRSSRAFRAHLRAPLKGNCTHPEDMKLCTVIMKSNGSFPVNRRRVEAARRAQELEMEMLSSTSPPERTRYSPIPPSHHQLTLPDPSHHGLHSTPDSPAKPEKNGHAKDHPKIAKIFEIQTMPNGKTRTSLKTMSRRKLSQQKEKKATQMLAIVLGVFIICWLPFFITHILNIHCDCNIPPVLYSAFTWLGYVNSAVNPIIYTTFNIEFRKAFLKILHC
Description: PDSP Primary Binding target: DRD2 - Compounds are tested at 10 uM concentration, plate are incubated at room temperature in the dark for 90 minutes. Reaction are stopped by vacuum filtration onto 0.3% polyethyleneimine soaked filter mats using Filtermate harvester. Scintilation cocktail is then melted onto microwave-dried filters on a hot plate and the radio activity is counted in Microbia counter.

[
  {
    "Compound": "O=C1O[C@]2(CC[C@H](C(=O)Nc3ccn(-c4ccccc4F)n3)CC2)c2cnccc21",
    "inhibition (%)": 10.1
  },
  {
    "Compound": "CCCCN1CCC(COC(=O)c2cc(Cl)c(N)c3c2OCCO3)CC1",
    "inhibition (%)": 43.7
  },
  {
    "Compound": "Oc1ccc2c3c1O[C@H]1c4[nH]c5c(c4C[C@@]4(O)[C@@H](C2)N(CC2CC2)CC[C@]314)C[C@@]1(O)[C@H]2Cc3ccc(O)c4c3[C@@]1(CCN2CC1CC1)[C@H]5O4",
    "inhibition (%)": 1.13
  },
  {
    "Compound": "C[C@H](NC[C@H](O)CP(=O)(O)CC1CCCCC1)c1ccc(Cl)c(Cl)c1",
    "inhibition (%)": 10.4
  },
  {
    "Compound": "N#Cc1cccc(C(=O)Nc2cc(-c3ccccc3)nn2-c2ccccc2)c1",
    "inhibition (%)": -0.08
  },
  {
    "Compound": "COc1ccc2[nH]cc(CCNC(C)=O)c2c1",
    "inhibition (%)": 32.8
  },
  {
    "Compound": "CCOC(=O)c1c(C)[nH]c2ccc3c(c12)CN1CCc2cc(OC)ccc2C1O3 (stereo not given)",
    "inhibition (%)": 4.19
  },
  {
    "Compound": "c1ccc(N2CCN(Cc3nc4ccccc4[nH]3)CC2)nc1",
    "inhibition (%)": 22.3
  },
  {
    "Compound": "Cc1csc(NC(=O)c2cc(F)cc(Oc3cncnc3)c2)n1",
    "inhibition (%)": 21
  },
  {
    "Compound": "C[C@]1(C(=O)N(CCCC(=O)O)Cc2cccc(Cl)c2)CCN1C(=O)c1csc2ccccc12",
    "inhibition (%)": -7.68
  },
  {
    "Compound": "COc1ccc(CNC(=O)c2cc(-c3cncc(Cl)c3)cnc2-c2ccccn2)nc1OC",
    "inhibition (%)": 17.4
  },
  {
    "Compound": "Cc1cccc([C@H](C)c2c[nH]cn2)c1C",
    "inhibition (%)": 14.4
  },
  {
    "Compound": "CCc1nn2c(C)cc(C)nc2c1Cc1ccc(-c2nnc(C3CCNCC3)o2)cc1",
    "inhibition (%)": -9.55
  },
  {
    "Compound": "Cc1cc(C(=O)N2Cc3cnn(C)c3Nc3ccccc32)ccc1CNC(=O)N1CCC[C@H]1C(=S)N1CCCN(C)CC1",
    "inhibition (%)": 5.64
  },
  {
    "Compound": "O=c1ccc2ccc(OCCCCN3CCN(c4cccc5sccc45)CC3)cc2[nH]1",
    "inhibition (%)": 104
  },
  {
    "Compound": "C[C@H](Cc1cc2c(c(C(N)=O)c1)N(CCCO)CC2)NCCOc1ccccc1OCC(F)(F)F",
    "inhibition (%)": 55.5
  },
  {
    "Compound": "CCN(CC)CCCCC1CCN(CC(=O)N2c3ccccc3C(=O)Nc3cccnc32)CC1",
    "inhibition (%)": 2.83
  },
  {
    "Compound": "N[C@H](C(=O)O)c1ccc(C(=O)O)c(C(=O)O)c1",
    "inhibition (%)": 13.7
  },
  {
    "Compound": "O=C(O)CC1CCC2(CC1)CCN(c1cc(OC(F)(F)F)ccc1Cl)CC2",
    "inhibition (%)": 18.6
  },
  {
    "Compound": "N=C(N)SCCc1c[nH]cn1",
    "inhibition (%)": -5.28
  }
]
